System: SUP-T1 (T-Lymphoblastic Leukemia)
Assay: combination Emax (second highest fraction inhibited in the dose matrix, 72 h); higher = more inhibition; extreme values may be limits of the assay
Label Criterion met when combination Emax >= 0.6; otherwise Criterion not met.

compound: CC1(C)CCC(CN2CCN(c3ccc(C(=O)NS(=O)(=O)c4ccc(NCC5CCOCC5)c([N+](=O)[O-])c4)c(Oc4cnc5[nH]ccc5c4)c3)CC2)=C(c2ccc(Cl)cc2)C1 [Venetoclax] + Cn1cnc2c(F)c(Nc3ccc(Br)cc3Cl)c(C(=O)NOCCO)cc21 [Selumetinib] (first compound max 1 µM, 7x7, partner max 3 µM)
assay_target: SUP-T1 (T-Lymphoblastic Leukemia)
group: Criterion not met
--
compound: CC1(C)CCC(CN2CCN(c3ccc(C(=O)NS(=O)(=O)c4ccc(NCC5CCOCC5)c([N+](=O)[O-])c4)c(Oc4cnc5[nH]ccc5c4)c3)CC2)=C(c2ccc(Cl)cc2)C1 [Venetoclax] + C[C@@H](Nc1cc(F)cc(F)c1)c1cc(C(=O)N(C)C)cc2c(=O)cc(N3CCOCC3)oc12 [AZD8186] (first compound max 1 µM, 7x7, partner max 3 µM)
assay_target: SUP-T1 (T-Lymphoblastic Leukemia)
group: Criterion not met
--
compound: C[C@@H](Oc1cc(-c2cnn(C3CCNCC3)c2)cnc1N)c1c(Cl)ccc(F)c1Cl [Crizotinib] + Cn1cnc2c(F)c(Nc3ccc(Br)cc3Cl)c(C(=O)NOCCO)cc21 [Selumetinib] (first compound max 10 µM, 7x7, partner max 10 µM)
assay_target: SUP-T1 (T-Lymphoblastic Leukemia)
group: Criterion met
--
compound: N#Cc1cnc(Nc2cc(NC[C@H]3CNCCO3)c(C(F)(F)F)cn2)cn1 [SRA737] + C=CCn1c(=O)c2cnc(Nc3ccc(N4CCN(C)CC4)cc3)nc2n1-c1cccc(C(C)(C)O)n1 [AZD1775] (first compound max 10 µM, partner max 1 µM)
assay_target: SUP-T1 (T-Lymphoblastic Leukemia)
group: Criterion met
--
compound: CN(CCO)CC[C@H](CSc1ccccc1)Nc1ccc(S(=O)(=O)NC(=O)c2ccc(N3CCC([C@@H](O)c4ccccc4-c4ccc(Cl)cc4)CC3)cc2)cc1S(=O)(=O)C(F)(F)F [AZD4320] + C=CCn1c(=O)c2cnc(Nc3ccc(N4CCN(C)CC4)cc3)nc2n1-c1cccc(C(C)(C)O)n1 [AZD1775] (first compound max 1 µM, partner max 1 µM)
assay_target: SUP-T1 (T-Lymphoblastic Leukemia)
group: Criterion met
--
compound: Cc1cc2ncnn2cc1Nc1ncc2c(n1)n(C1CCOCC1)c(=O)n2C [AZD7648] + COc1cc([C@@H]2c3cc4c(cc3[C@@H](O[C@@H]3O[C@@H]5CO[C@@H](C)O[C@H]5[C@H](O)[C@H]3O)[C@H]3COC(=O)[C@H]23)OCO4)cc(OC)c1O [Etoposide] (first compound max 10 µM, 7x7, partner max 10 µM)
assay_target: SUP-T1 (T-Lymphoblastic Leukemia)
group: Criterion met
--
compound: COc1cccc(OCCCN)c1-c1cc(Nc2cnc(C#N)cn2)n[nH]1 [Prexasertib] + Cc1cc2ncnn2cc1Nc1ncc2c(n1)n(C1CCOCC1)c(=O)n2C [AZD7648] (first compound max 1 µM, 7x7, partner max 10 µM)
assay_target: SUP-T1 (T-Lymphoblastic Leukemia)
group: Criterion met
--
compound: CC1(C)CCC(CN2CCN(c3ccc(C(=O)NS(=O)(=O)c4ccc(NCC5CCOCC5)c([N+](=O)[O-])c4)c(Oc4cnc5[nH]ccc5c4)c3)CC2)=C(c2ccc(Cl)cc2)C1 [Venetoclax] + C[C@@H]1COCCN1C2=NC(=NC(=C2)C3(CC3)[S@](=N)(=O)C)C4=C5C=CNC5=NC=C4 [AZD6738] (first compound max 1 µM, 7x7, partner max 10 µM)
assay_target: SUP-T1 (T-Lymphoblastic Leukemia)
group: Criterion met
--
compound: CCc1c2c(nc3ccc(O)cc13)-c1cc3c(c(=O)n1C2)COC(=O)[C@]3(O)CC [SN-38] + O=C(c1cc(Cc2n[nH]c(=O)c3ccccc23)ccc1F)N1CCN(C(=O)C2CC2)CC1 [Olaparib] (first compound max 0.3 µM, 7x7, partner max 10 µM)
assay_target: SUP-T1 (T-Lymphoblastic Leukemia)
group: Criterion met
--
compound: Cc1c2c(nn1C)CSCc1cc(n(C)n1)CSc1cc(c3ccccc3c1)OCCCc1c(C(=O)O)n(C)c3c-2c(Cl)ccc13 [AZD5991] + CN(C)CCCOc1ccc(-c2ccc3ncc4c(c3c2)n(C2CCOCC2)c(=O)n4C)cn1 [AZD0156] (first compound max 1 µM, 7x7, partner max 1 µM)
assay_target: SUP-T1 (T-Lymphoblastic Leukemia)
group: Criterion not met
